Values were extracted from paper PMC4342090.

target: UniProtKB Q8II73
MEASURE_NAME: pKi
Please report pKi as the negative decimal logarithm of the molar concentration, giving only the number.

Field pKi (UniProtKB Q8II73), entry "NCCCNC1CCCCC1" : 5.55

====

target: PfSpdS (Plasmodium falciparum); experiment: biochemical; format: biochemical; settings: read-out: % Inhibition (at 100 μM)
Sequence (Q8II73 entry or part of it): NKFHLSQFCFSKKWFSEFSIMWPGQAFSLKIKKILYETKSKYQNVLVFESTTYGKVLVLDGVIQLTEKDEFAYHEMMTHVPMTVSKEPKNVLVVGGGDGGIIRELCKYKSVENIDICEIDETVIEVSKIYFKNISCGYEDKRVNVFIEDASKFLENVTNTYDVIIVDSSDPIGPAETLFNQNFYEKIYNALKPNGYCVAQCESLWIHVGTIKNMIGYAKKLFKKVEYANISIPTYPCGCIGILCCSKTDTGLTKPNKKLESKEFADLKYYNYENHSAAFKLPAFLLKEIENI
MEASURE_NAME: inhibition at 100 µM (%)
Response body: numeric value in %, unit text excluded.

1. NCCCNC1CCCCC1 = 88.3
2. C[C@H]1CC[C@H](N)CC1 [4MCHA, trans-4-methylcyclohexylamine] = 95.3
3. NCCCN[C@H]1CC[C@H](N)CC1 = 12.7

# input for lookup
Recorded result, "CC1CCN(CCCN)CC1" , inhibition at 100 µM: 17

====

target: PfSpdS (Plasmodium falciparum); assay: biochemical; assay type: biochemical
MEASURE_NAME: IC50 (µM)
Response body: numeric value in µM, unit text excluded.

1) NCCCNC1CCCCC1 = 7.4

# input for lookup
Field IC50 (PfSpdS (Plasmodium falciparum)), entry "NCCCN[C@H]1CC[C@H](N)CC1" : 619
